assayedSystem: SARS-CoV-1 spike protein (SARS-CoV-1, UniProt P59594 14-1195)
protocolNotes: ELISA
Param label: returns Satisfied when EC50 < 3 nM, returns Not satisfied otherwise, including exact equality.

{"columns": ["binder", "qualitativeLabel"],
 "data": [
  ["2-P2-A (antibody, V domains shown) VH: EVQLQQSGAELVRPGSSVKMSCKTSGYTFTSYGINWVKQRPGQGLEWIGYIYIGNGYTEYNEKFKGKATLTSDTSSSTAYMQLSSLTSEDSAIYFCARGGVDYWGQGTTLTVSS VL: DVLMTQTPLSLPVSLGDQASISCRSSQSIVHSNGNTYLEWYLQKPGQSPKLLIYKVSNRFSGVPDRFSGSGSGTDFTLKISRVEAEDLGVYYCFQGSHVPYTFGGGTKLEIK", "Satisfied"],
  ["9-F6-A (antibody, V domains shown) VH: EVQLQQSGPELVKPGASVKMSCKASGYTFTSYIMHWVKQKPGQGLEWIGYILPYNDGTKYNEKFKGKATLTSDKSSSTAYMELRSLTSEDSAVYYCARWGYSNFLDSWGQGTTLTVSS VL: DIQMTQTTSSLSASLGDRVTISCRASQDINNYLNWYQQKPDGTVKLLIYYTSRLHSGVPSRFSGSGSGTDYSLTIRNLEQEDIATYFCQQGNTLPPTFGGGTKLEIK", "Satisfied"],
  ["6-O12-A (antibody, V domains shown) VH: QVQLQQPGTELVKPGASVKLSCKASGYTFTSYWMHWVKQRPGQGLEWIGNINPSNGGTNYNEKFRSKATLTVDKSSSTAYMQLSSLTSEDSAVYYCARLGWFLPLGSWGQGTTLTVSS VL: QIVLTQSPAIMSASLGEVITLTCSASSSVSYMHWYQQKSGTSPKLLIYSTSNLASGVPSRFSGSGSGTFYSLTISSVEAEDAADYYCHQWSGYMYTFGGGTKLEIK", "Satisfied"],
  ["9-L13-A (antibody, V domains shown) VH: QVQLKESGPGLVAPSQSLSITCTVSGFSLTSYAISWVRQPPGKGLEWLGLIWTGGGTNYNSALKSRLSISKDNSKSQIFLKMNSLQTDDTARYYCARGPPLIYYGDLYYFDYWGQGTTLTVSS VL: DIQMTQSPSSLSASLGGKVTITCKASQDINKYIAWYQHKPGKGPRLLIHYTSTLQPGIPSRFSGSGSGRDYSFSISNLEPEDIATYYCLQYDNLWTFGGGTKLEIK", "Not satisfied"],
  ["1-L10-A (antibody, V domains shown) VH: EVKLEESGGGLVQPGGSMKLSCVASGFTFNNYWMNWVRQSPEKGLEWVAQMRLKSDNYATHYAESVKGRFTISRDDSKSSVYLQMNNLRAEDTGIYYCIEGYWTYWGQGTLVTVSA VL: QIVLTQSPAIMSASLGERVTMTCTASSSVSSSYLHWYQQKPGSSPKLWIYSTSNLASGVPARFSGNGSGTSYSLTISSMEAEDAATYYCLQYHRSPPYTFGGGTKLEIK", "Not satisfied"],
  ["8-A17-A (antibody, V domains shown) VH: QVQLKESGPGLVAPSQSLSITCTVSGFSLTSYAISWVRQPPGKGLEWLGVVWPGGGTNYNSALKSRLSINKDNSKSQVFLKMNSLQTDDTGRYYCARTGYHFDYWGQGTTLTVSS VL: QIVLTQSPAIMSASPGEKVTMTCSVSSSVSYMHWYQQKSGTSPKRWIYDTSKLASGVPARFSGSGSGTSYSLTISSMEAEDAATYYCQQWSSNPPMYTFGGGTKLEIK", "Satisfied"],
  ["10-B11-A (antibody, V domains shown) VH: QVQLQQPGAELVKPGASVKVSCKASGYTFTSYWMHWVKQRPGQGLEWIGRIHPSDSDTNYYQKFKGKATLSVDKSSSTAYMQLSSLTSEDSAVYYCAIPLYSYDNSGGYYPMDYWGQGTSVTVSS VL: DIVMTQSQKFMSTSVGDRVTITCKASQNVRTAVAWYQQKPGQSPKKLIYLASNRHTGVPDRFTGSGSGTDFTLAISNVQSEDLADYFCLQHWNYPFTFGSGTRLEIK", "Not satisfied"]
]}
